Record form. Attribute: pIC50. Fill in for each entry.
- system-name: benzodiazepine site of the GABA-A receptor
- assay: Benzodiazepine Receptor Binding Assay (inhibition of 3H-flunitrazepam binding)
- conditions: Table 1; ca. 3 nM 3H-flunitrazepam, 25° C., 10-20 min; >10,000 = not active
In textbook form, pIC50 equals minus log to base ten of the concentration in mol/L.

Enquiry: Can you share its pIC50? I mean this compound: O=C1CCN2C(=C1C(=O)Nc1c(F)cccc1F)Nc1cc(F)ccc12 [compound 109]
Return: 8.89

Enquiry: Which pIC50 value is on record for O=C1CCN2C(=C1C(=O)Nc1ncncn1)Nc1ccccc12 [compound 53] ?
Return: 6.96

Enquiry: Would you mind telling me what pIC50 value was observed for O=C1CCN2C(=C1C(=O)Nc1ccc3[nH]nnc3c1)Nc1ccccc12 [compound 73] ?
Return: 6.80

Enquiry: For the compound Cc1cccc(C)c1NC(=O)C1=C2Nc3ccccc3N2CCC1=O [compound 19] , what pIC50 is on record?
Return: 5.11

Enquiry: Requested read-out: pIC50. Entry: O=C1CCN2C(=C1C(=O)Nc1c(F)c(F)c(F)c(F)c1F)Nc1ccccc12 [compound 91]
Return: 6.57

* * *

Answer each item with its documented ED50.
- assay: Suppression of metrazol-induced convulsions
- Type: in vivo, male CD1 mice
- conditions: Mus musculus, 0.5 h; Table 1; ip; mice; clonic convulsions after sc CD90 metrazol; >30 = active dose not determined; read-out: Metrazol (ip) ED50

Enquiry: What does the record list as ED50 for O=C1CCN2C(=C1C(=O)Nc1cccc(F)c1)Nc1ccccc12 ?
Return: > 10 mg/kg

Enquiry: // lookup ED50 for O=C1CCN2C(=C1C(=O)Nc1ncccn1)Nc1ccccc12
Return: 3 mg/kg

Enquiry: ED50 for O=C1CCN2C(=C1C(=O)Nc1ccc3ncsc3c1)Nc1ccccc12 ?
Return: > 10 mg/kg

Enquiry: Dear colleague, I am looking for the recorded ED50 of the following molecule: NC(=O)c1ccc(NC(=O)C2=C3Nc4ccccc4N3CCC2=O)cc1
Return: > 10 mg/kg

Enquiry: What value of ED50 has been recorded for this entry: O=C1CCN2C(=C1C(=O)Nc1ccc3[nH]ccc3c1)Nc1ccccc12
Return: > 30 mg/kg

* * *

Exercise: for every item that follows, state its recorded minimal effective dose.
- assay: Suppression of anxiety (punished licking, conflict test) in the adult male rat
- Type: in vivo, male rats
- conditions: Table 1, ip, minimum effective dose, >10 = active dose not determined, read-out: Conflict (ip) MED

Enquiry: Bench note: what minimal effective dose did O=C1CCN2C(=C1C(=O)Nc1ccc3c(c1)CCN3)Nc1ccccc12 [compound 33] show?
Return: 10 mg/kg

Enquiry: Value lookup for minimal effective dose; key = CCCCNC(=O)C1=C2Nc3ccccc3N2CCC1=O [compound 38]
Return: > 10 mg/kg

Enquiry: Entry O=C1CCN2C(=C1C(=O)Nc1ccccc1F)Nc1cc(F)ccc12 [compound 108] has what minimal effective dose?
Return: 10 mg/kg

Enquiry: Returns the measured minimal effective dose for the input molecule. Input: O=C1CCN2C(=C1C(=O)Nc1ccc(Br)cc1)Nc1ccccc12 [compound 44]
Return: > 10 mg/kg

Enquiry: Form field: reported minimal effective dose of O=C1CCN2C(=C1C(=O)Nc1c(Cl)c(F)nc(F)c1Cl)Nc1ccccc12 [compound 67]
Return: 10 mg/kg

Enquiry: Quick one: minimal effective dose for CSc1ccccc1NC(=O)C1=C2Nc3ccccc3N2CCC1=O [compound 40] ?
Return: > 10 mg/kg

Enquiry: Request the reported minimal effective dose associated with O=C1CCN2C(=C1C(=O)Nc1ncc[nH]1)Nc1ccccc12 [compound 99]
Return: > 10 mg/kg

Enquiry: Give the measured minimal effective dose of Cc1nnc(NC(=O)C2=C3Nc4ccccc4N3CCC2=O)s1 [compound 64] .
Return: > 10 mg/kg

Enquiry: What does the record list as minimal effective dose for O=C1CCN2C(=C1C(=O)Nc1c(F)c(F)c(F)c(F)c1F)Nc1ccccc12 [compound 91] ?
Return: 10 mg/kg

* * *

- assay: Suppression of anxiety (punished licking, conflict test) in the adult male rat
- Assay type: in vivo, male rats
- conditions: Table 4, minimum effective dose, read-out: Conflict MED
parameter-measured: minimal effective dose

Enquiry: Endpoint output: minimal effective dose of O=C(Nc1ccncc1)c1c(=O)ccn2c1[nH]c1ccccc12 [compound 140] . Value?
Return: > 10 mg/kg

Enquiry: Can you look up the measured minimal effective dose of Cn1c2ccccc2n2ccc(=O)c(C(=O)Nc3ccccc3)c12 [compound 142] for me?
Return: < 1 mg/kg

Enquiry: Quick check: minimal effective dose of O=C(Nc1ccccc1)c1c(=O)ccn2c1[nH]c1ccccc12 [compound 138] ?
Return: 1 to 10 mg/kg

* * *

- assay: Suppression of metrazol-induced convulsions
- Assay type: in vivo, male CD1 mice
- conditions: Mus musculus, 0.5 h; Table 1; ip; mice; clonic convulsions after sc CD90 metrazol; >30 = active dose not determined; read-out: Metrazol (ip) ED50
parameter-measured: ED50

Enquiry: Entry under review: O=C1CCN2C(=C1C(=O)Nc1ncc(C(F)(F)F)cc1C(F)(F)F)Nc1ccccc12 . Reported ED50?
Return: > 10 mg/kg

Enquiry: Any idea what ED50 was measured for Cc1cc(NC(=O)C2=C3Nc4ccccc4N3CCC2=O)on1 ?
Return: > 10 mg/kg

Enquiry: Which value of ED50 has been reported for O=C1CCN2C(=C1C(=O)Nc1cccc(Cl)c1)Nc1ccccc12 in the records?
Return: > 30 mg/kg

Enquiry: For the compound O=C1CCN2C(=C1C(=O)Nc1ccccc1F)Nc1cc(F)ccc12 , what ED50 is on record?
Return: < 1 mg/kg

Enquiry: I would be grateful if you could share the reported ED50 for CCCCc1ccc(NC(=O)C2=C3Nc4ccccc4N3CCC2=O)cc1 .
Return: > 10 mg/kg

Enquiry: Would you mind telling me what ED50 value was observed for O=C1CCN2C(=C1C(=O)Nc1ccc(C(=O)O)cc1)Nc1ccccc12 ?
Return: > 30 mg/kg

Enquiry: // returns reported ED50 for input C[n+]1ccc(NC(=O)C2=C3Nc4ccccc4N3CCC2=O)cc1
Return: > 10 mg/kg

Enquiry: Fill in the blank: the reported ED50 of O=C1CCN2C(=C1C(=O)Nc1ccncn1)Nc1ccccc12 is ____.
Return: > 10 mg/kg

Enquiry: GET /values?readout=ED50&item= O=C1CCN2C(=C1C(=O)Nc1c(Cl)cc(Cl)cc1Cl)Nc1ccccc12
Return: > 10 mg/kg

Enquiry: Sample COc1ccc2c(c1)NC1=C(C(=O)Nc3ccncc3)C(=O)CCN12 — what was its ED50?
Return: > 10 mg/kg

* * *

- assay: Suppression of anxiety (punished licking, conflict test) in the adult male rat
- Assay type: in vivo, male rats
- conditions: Table 1, ip, minimum effective dose, >10 = active dose not determined, read-out: Conflict (ip) MED
Field: minimal effective dose. Provide a value for each of the molecules that follow.

Enquiry: Query: minimal effective dose; subject: O=C1CCN2C(=C1C(=O)Nc1ccc3ncsc3c1)Nc1ccccc12 [compound 72]
Return: < 10 mg/kg

Enquiry: # input molecule: CSc1ccc(NC(=O)C2=C3Nc4ccccc4N3CCC2=O)cc1 [compound 23] ; wanted: its minimal effective dose
Return: > 10 mg/kg

Enquiry: May I ask what minimal effective dose has been recorded for Nc1ccc(NC(=O)C2=C3Nc4ccccc4N3CCC2=O)cc1 [compound 18] ?
Return: > 10 mg/kg

Enquiry: # query: minimal effective dose of entry O=C1CCN2C(=C1C(=O)NCCc1ccccc1)Nc1ccccc12 [compound 2]
Return: > 10 mg/kg

Enquiry: minimal effective dose for O=C1CCN2C(=C1C(=O)Nc1nccnn1)Nc1ccccc12 [compound 49] ?
Return: > 10 mg/kg

* * *

- assay: Suppression of metrazol-induced convulsions
- Assay type: in vivo, male CD1 mice
- conditions: Mus musculus, 0.5 h; Table 1; ip; mice; clonic convulsions after sc CD90 metrazol; >30 = active dose not determined; read-out: Metrazol (ip) ED50
parameter-measured: ED50

Enquiry: Look at this compound and give its reported ED50. COc1ccc(NC(=O)C2=C3Nc4ccccc4N3CCC2=O)cc1OC
Return: > 30 mg/kg

Enquiry: Any idea what ED50 was measured for Cc1nnc(NC(=O)C2=C3Nc4ccccc4N3CCC2=O)s1 ?
Return: > 10 mg/kg

Enquiry: Item O=C1CCN2C(=C1C(=O)Nc1ccccc1)Nc1ccc(Cl)cc12 has what recorded ED50?
Return: > 10 mg/kg

Enquiry: Item O=C1CCN2C(=C1C(=O)Nc1cccc(C(F)(F)F)c1)Nc1ccccc12 has what recorded ED50?
Return: > 10 mg/kg

Enquiry: Please give the measured ED50 for this compound: Cc1cnccc1NC(=O)C1=C2Nc3ccccc3N2CCC1=O
Return: > 10 mg/kg

Enquiry: ED50 for CCCCNC(=O)C1=C2Nc3ccccc3N2CCC1=O ?
Return: > 10 mg/kg

Enquiry: So what does the record say about ED50 for NC(=O)C1=C2Nc3ccccc3N2CCC1=O ?
Return: > 3 mg/kg

Enquiry: Query (compound): O=C1CCN2C(=C1C(=O)Nc1ccc3c(c1)CCN3)Nc1ccccc12 ; field requested: ED50
Return: > 30 mg/kg

Enquiry: Entry Cc1cccc(C)c1NC(=O)C1=C2Nc3ccccc3N2CCC1=O has what ED50?
Return: > 30 mg/kg

Enquiry: Query (compound): O=C1CCN2C(=C1C(=O)Nc1ccc(F)cc1)Nc1ccccc12 ; field requested: ED50
Return: > 30 mg/kg

Enquiry: Need ED50 of CCOC(=O)c1ccc(NC(=O)C2=C3Nc4ccccc4N3CCC2=O)cc1 , thanks.
Return: > 30 mg/kg
